Test system: H929 human cancer cell lines
Experiment: Cellular viability / proliferation (Cell TiterGlo, 72 h)
Format: cell-based
Conditions: Homo sapiens, NCI-H929, 72 h, read-out: GI50 on cellular proliferation of H929 human cancer cell lines, H929 cells, 72 h, Cell TiterGlo, 10% FBS
measurement_type: GI50 (nM)
Record the value in nM, omitting the unit from your answer.

For Cc1cc(OCCCc2c3n(c4c(-c5c(C)nn(CC6CCN(C)CC6)c5C)c(Cl)ccc24)[C@H](C)CN(c2cn(C)c4c(C)cc(C(=O)O)cc24)C3=O)cc(C)c1Cl the molecule record lists GI50 as 480

For Cc1cc(N2C[C@@H](C)n3c(c(CCCOc4cc(C)c(Cl)c(C)c4)c4ccc(Cl)c(-c5c(C)nn(CCN6CCCC6)c5C)c43)C2=O)c2c(c1)cc(C(=O)O)n2C the molecule record lists GI50 as 290

For COc1cc(C(=O)O)nc2c(N3C[C@@H](C)n4c(c(CCCOc5cc(C)c(Cl)c(C)c5)c5ccc(Cl)c(-c6c(C)nn(C)c6C)c54)C3=O)cccc12 the molecule record lists GI50 as 1800

For Cc1nnc(Cn2c(C(=O)O)cc3cccc(N4C[C@@H](C)n5c(c(CCCOc6cc(C)c(Cl)c(C)c6)c6ccc(Cl)c(-c7c(C)nn(C)c7C)c65)C4=O)c32)o1 the molecule record lists GI50 as 2800

For Cc1cc(OCCCc2c3n(c4c(-c5c(C)nn(C)c5C)c(Cl)ccc24)[C@H](C)CN(c2cc(OCCN(C)C)cc4cc(C(=O)O)n(C)c24)C3=O)cc(C)c1Cl the molecule record lists GI50 as 220

====

Target: Mcl-1 (Homo sapiens (Human))
Sequence (Q07820 172-327): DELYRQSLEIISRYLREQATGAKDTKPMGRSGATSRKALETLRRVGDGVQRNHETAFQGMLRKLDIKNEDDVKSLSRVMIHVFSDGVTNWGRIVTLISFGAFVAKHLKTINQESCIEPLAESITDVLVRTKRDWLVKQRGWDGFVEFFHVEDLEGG
Experiment: Fluorescence polarization anisotropy (FPA) competition assay, FITC-Bak or FITC-Bim BH3 peptide
Type: binding
Settings: read-out: Ki for Inhibition of Mcl-1 by FPA assay
Would you mind telling me the reported Ki of each entry?
Record the value in nM, omitting the unit from your answer.

Record Cc1cc(OCCCc2c3n(c4c(-c5c(C)nn(C)c5C)c(Cl)ccc24)[C@H](C)CN(c2cn(C)c4c(-c5nnnn5C)cccc24)C3=O)cc(C)c1Cl / Mcl-1 (Homo sapiens (Human)), Ki recorded as 1.2

Record Cc1cc(OCCCc2c3n(c4c(-c5c(C)nn(C)c5C)c(Cl)ccc24)[C@H](C)CN(c2cc(OCC4COC4)cc4cc(C(=O)O)n(C)c24)C3=O)cc(C)c1Cl / Mcl-1 (Homo sapiens (Human)), Ki recorded as 1

Record CCn1cc(C(=O)O)c2c(N3C[C@@H](C)n4c(c(CCCOc5cc(C)c(Cl)c(C)c5)c5ccc(Cl)c(-c6c(C)nn(C)c6C)c54)C3=O)cccc21 / Mcl-1 (Homo sapiens (Human)), Ki recorded as 2.7

Record Cc1cc(OCCCc2c3n(c4c(-c5c(C)nn(C)c5C)c(Cl)ccc24)[C@H](C)CN(c2cn(C)c4ccc(-c5cn6c(n5)CCC6)cc24)C3=O)cc(C)c1Cl / Mcl-1 (Homo sapiens (Human)), Ki recorded as 2.3

Record Cc1cc(OCCCc2c3n(c4c(-c5c(C)nn(C)c5C)c(Cl)ccc24)[C@H](C)CN(c2cccc4ccc(C(=O)O)cc24)C3=O)cc(C)c1Cl [Example 368] / Mcl-1 (Homo sapiens (Human)), Ki recorded as 1.4

Record Cc1cc(N2C[C@@H](C)n3c(c(CCCOc4cc(C)c(Cl)c(C)c4)c4ccc(Cl)c(-c5c(C)nn(CC6CCOCC6)c5C)c43)C2=O)c2c(c1)cc(C(=O)O)n2C / Mcl-1 (Homo sapiens (Human)), Ki recorded as 2.2

Record Cc1cc(OCCCc2c3n(c4c(-c5c(C)nn(C)c5C)c(Cl)ccc24)CCCN(c2cc(C(=O)O)cc4c2ccn4CCN(C)C)C3=O)cc(C)c1Cl / Mcl-1 (Homo sapiens (Human)), Ki recorded as 4

====

Test system: H929 human cancer cell lines
Assay: Cellular viability / proliferation (Cell TiterGlo, 72 h)
Format: cell-based
Conditions: Homo sapiens, NCI-H929, 72 h, read-out: GI50 on cellular proliferation of H929 human cancer cell lines, H929 cells, 72 h, Cell TiterGlo, 10% FBS
Using GI50 as the sorting value, the categories are bin 0 = under 500 nM, bin 1 = from 500 nM up to 2000 nM, bin 2 = 2000 nM and over

Given CCCn1cc(N2C[C@@H](C)n3c(c(CCCOc4cc(C)c(Cl)c(C)c4)c4ccc(Cl)c(-c5c(C)nn(C)c5C)c43)C2=O)c2cc(C(=O)O)ccc21 , name the class its GI50 places it in.
bin 0

Given COCCn1c(C(=O)O)cc2cc(OC)cc(N3C[C@@H](C)n4c(c(CCCOc5cc(C)c(Cl)c(C)c5)c5ccc(Cl)c(-c6c(C)ncnc6C)c54)C3=O)c21 , name the class its GI50 places it in.
bin 0

Given Cc1cc(OCCCc2c3n(c4c(-c5c(C)nn(C)c5C)c(Cl)ccc24)CCCN(c2nn(CCN4CCOCC4)c4cc(C(=O)O)ccc24)C3=O)cc(C)c1Cl , name the class its GI50 places it in.
bin 2

Given COCc1cccn2nc(-c3ccc4c(c3)c(N3C[C@@H](C)n5c(c(CCCOc6cc(C)c(Cl)c(C)c6)c6ccc(Cl)c(-c7c(C)nn(C)c7C)c65)C3=O)cn4C)nc12 , name the class its GI50 places it in.
bin 0

Given CCn1cc(N2C[C@@H](C)n3c(c(CCCOc4cc(C)c(Cl)c(C)c4)c4ccc(Cl)c(-c5c(C)nn(C)c5C)c43)C2=O)c2ccc(C(=O)O)cc21 , name the class its GI50 places it in.
bin 1

Given Cc1cc(OCCCc2c3n(c4c(-c5c(C)nn(C)c5C)c(Cl)ccc24)[C@H](C)CN(c2cccc4c(C(=O)O)ccnc24)C3=O)cc(C)c1Cl , name the class its GI50 places it in.
bin 2

Given Cc1cc(OCCCc2c3n(c4c(-c5c(C)nn(C)c5C)c(Cl)ccc24)[C@H](C)CN(c2cn(Cc4cscn4)c4ccc(C(=O)O)cc24)C3=O)cc(C)c1Cl , name the class its GI50 places it in.
bin 0

Given Cc1cc(OCCCc2c3n(c4c(-c5c(C)nn(C)c5C)c(Cl)ccc24)[C@H](C)CN(c2ccc4c(c2)cc(C(=O)O)n4C)C3=O)cc(C)c1Cl , name the class its GI50 places it in.
bin 1

Given Cc1cc(OCCCc2c3n(c4c(-c5c(C)nn(C)c5C)c(Cl)ccc24)[C@H](C)CN(c2cn(C(C)C)c4ccc(C(=O)O)cc24)C3=O)cc(C)c1Cl , name the class its GI50 places it in.
bin 1

Given Cc1cc(N2C[C@@H](C)n3c(c(CCCOc4cc(C)c(Cl)c(C)c4)c4ccc(Cl)c(-c5c(C)nn(C)c5C)c43)C2=O)c2c(c1)cc(C(=O)O)n2CC1CCN(C)C1 (some centres unmarked) , name the class its GI50 places it in.
bin 2

Given COc1cc(C(=O)O)cc(N2CCCn3c(c(CCCOc4cc(C)c(Cl)c(C)c4)c4ccc(Cl)c(-c5c(C)nn(C)c5C)c43)C2=O)c1OCCO , name the class its GI50 places it in.
bin 2

====

Test system: H929 human cancer cell lines
Assay: Cellular viability / proliferation (Cell TiterGlo, 72 h)
Format: cell-based
Conditions: Homo sapiens, NCI-H929, 72 h, read-out: GI50 on cellular proliferation of H929 human cancer cell lines, H929 cells, 72 h, Cell TiterGlo, 10% FBS
Would you mind telling me the reported GI50 of each entry?
Record the value in nM, omitting the unit from your answer.

For Cc1cc(OCCCc2c3n(c4c(-c5c(C)nc(N6CCN(C)CC6)nc5C)c(Cl)ccc24)CCCN(c2cn(C)c4ccc(C(=O)O)cc24)C3=O)cc(C)c1Cl [Example 228] the molecule record lists GI50 as 780

For COCCn1cc(N2C[C@@H](C)n3c(c(CCCOc4cc(C)c(Cl)c(C)c4)c4ccc(Cl)c(-c5c(C)nn(C)c5C)c43)C2=O)c2cc(-c3ncn(CC4CN(C(C)=O)C4)n3)ccc21 [Example 618] the molecule record lists GI50 as 360

For Cc1cc(OCCCc2c3n(c4c(-c5c(C)nn(C)c5C)c(Cl)ccc24)[C@H](C)CN(c2cn(C)c4ccc(C(=O)NNc5ccccc5)cc24)C3=O)cc(C)c1Cl [Example 427] the molecule record lists GI50 as 490

====

Would you mind telling me the reported GI50 of each entry?
System: H929 human cancer cell lines
Assay: Cellular viability / proliferation (Cell TiterGlo, 72 h)
Type: cell-based
Details: Homo sapiens, NCI-H929, 72 h, read-out: GI50 on cellular proliferation of H929 human cancer cell lines, H929 cells, 72 h, Cell TiterGlo, 10% FBS

For Cc1cc(OCCCc2c3n(c4c(-c5c(C)ncnc5C)c(Cl)ccc24)CCCN(c2ccnc4ccc(C(=O)O)cc24)C3=O)cc(C)c1Cl [Example 220] the compound record lists GI50 as 2000 nM

For Cc1cc(OCCCc2c3n(c4c(-c5c(C)nn(C)c5C)c(Cl)ccc24)[C@H](C)CN(c2cn(CCN4CCN(C)C(=O)C4)c4ccc(-c5ncn(C)n5)cc24)C3=O)cc(C)c1Cl [Example 603] the compound record lists GI50 as < 200 nM

For COCCOCCn1c(C(=O)O)cc2cc(C)cc(N3C[C@@H](C)n4c(c(CCCOc5cc(C)c(Cl)c(C)c5)c5ccc(Cl)c(-c6c(C)ncnc6C)c54)C3=O)c21 [Example 635] the compound record lists GI50 as < 200 nM

For Cc1cccc(Cn2c(C(=O)O)cc3cccc(N4C[C@@H](C)n5c(c(CCCOc6cc(C)c(Cl)c(C)c6)c6ccc(Cl)c(-c7c(C)nn(C)c7C)c65)C4=O)c32)n1 [Example 381] the compound record lists GI50 as 250 nM

For Cc1cc(OCCCc2c3n(c4c(-c5c(C)n[nH]c5C)c(Cl)ccc24)[C@H](C)CN(c2cc(C(=O)O)c4cnn(C)c4c2)C3=O)cc(C)c1Cl [Example 93] the compound record lists GI50 as 7500 nM

For Cc1cc(N2C[C@@H](C)n3c(c(CCCOc4cc(C)c(Cl)c(C)c4)c4ccc(Cl)c(-c5c(C)nn(C)c5C)c43)C2=O)c2c(c1)cc(C(=O)O)n2Cc1cccc(C#N)n1 [Example 557] the compound record lists GI50 as 820 nM

For COc1ccc(N2C[C@@H](C)n3c(c(CCCOc4cc(C)c(Cl)c(C)c4)c4ccc(Cl)c(-c5c(C)nn(C)c5C)c43)C2=O)c2c1cc(C(N)=O)n2Cc1ccccn1 [Example 466] the compound record lists GI50 as 300 nM

For Cc1cc(OCCCc2c3n(c4c(-c5c(C)nn(C)c5C)c(Cl)ccc24)[C@H](C)CN(c2cc(OCCN(C)C)cc4cc(C(=O)O)n(Cc5ccccn5)c24)C3=O)cc(C)c1Cl [Example 590] the compound record lists GI50 as 670 nM

For Cc1cc(OCCCc2c3n(c4c(-c5c(C)nn(C)c5C)c(Cl)ccc24)[C@H](C)CN(c2cccc4c(C(=O)O)c(C)n(C)c24)C3=O)cc(C)c1Cl [Example 417] the compound record lists GI50 as 340 nM

For Cc1cc(OCCCc2c3n(c4c(-c5c(C)nn(C)c5C)c(Cl)ccc24)[C@H](C)CN(c2cccc4cc(C(=O)O)n(CC5(C)COC5)c24)C3=O)cc(C)c1Cl [Example 380] the compound record lists GI50 as 2500 nM

For Cc1cc(OCCCc2c3n(c4c(-c5c(C)nn(C)c5C)c(Cl)ccc24)[C@H](C)CN(c2ccc(C(=O)O)c4c2ccn4C)C3=O)cc(C)c1Cl [Example 51] the compound record lists GI50 as 1500 nM

For Cc1cc(OCCCc2c3n(c4c(-c5c(C)nn(C)c5C)c(Cl)ccc24)[C@H](C)CN(c2cn(CC(=O)N4CCOCC4)c4ccc(-c5ncccn5)cc24)C3=O)cc(C)c1Cl [Example 531] the compound record lists GI50 as 380 nM

For Cc1cc(OCCCc2c3n(c4c(-c5c(C)nn(CC6CCOCC6)c5C)c(Cl)ccc24)[C@H](C)CN(c2cn(C)c4cc(C(=O)O)ccc24)C3=O)cc(C)c1Cl [Example 308] the compound record lists GI50 as 410 nM

For Cc1cc(OCCCc2c3n(c4c(-c5c(C)nn(C)c5C)c(Cl)ccc24)[C@H](C)CN(c2cccc4c2c(C(=O)O)nn4C)C3=O)cc(C)c1Cl [Example 125] the compound record lists GI50 as 7600 nM

For Cc1cc(OCCCc2c3n(c4c(-c5c(C)nn(C)c5C)c(Cl)ccc24)[C@H](C)CN(c2cc(C(=O)O)c4ccccc4c2)C3=O)cc(C)c1Cl [Example 188] the compound record lists GI50 as 2700 nM

For Cc1cc(OCCCc2c3n(c4c(-c5c(C)nn(C)c5C)c(Cl)ccc24)CCCN(c2cc(C(=O)O)c4cnn(CCN5CCOCC5)c4c2)C3=O)cc(C)c1Cl [Example 14] the compound record lists GI50 as 3200 nM

For Cc1cccc(Cn2c(C(=O)O)cc3cc(OCCN(C)C)cc(N4C[C@@H](C)n5c(c(CCCOc6cc(C)c(Cl)c(C)c6)c6ccc(Cl)c(-c7c(C)nn(C)c7C)c65)C4=O)c32)n1 [Example 592] the compound record lists GI50 as 880 nM

For Cc1cc(OCCCc2c3n(c4c(-c5c(C)nn(C)c5C)c(Cl)ccc24)[C@H](C)CN(c2cc(OCCN4CCCC4)cc4cc(C(=O)O)n(C)c24)C3=O)cc(C)c1Cl [Example 460] the compound record lists GI50 as 420 nM

For Cc1cc(OCCCc2c3n(c4c(-c5c(C)ncnc5C)c(Cl)ccc24)CCCN(c2cc(C(=O)O)cc4c2OCCO4)C3=O)cc(C)c1Cl [Example 154] the compound record lists GI50 as 1300 nM

For Cc1cc(OCCCc2c3n(c4c(-c5c(C)cc(OCCN(C)C)cc5C)c(Cl)ccc24)[C@H](C)CN(c2cn(C)c4ccc(C(=O)O)cc24)C3=O)cc(C)c1Cl [Example 509] the compound record lists GI50 as 390 nM

For Cc1cc(OCCCc2c3n(c4c(-c5c(C)nn(C)c5C)c(Cl)ccc24)CCCN(c2cc(C(=O)O)cc4c2N(C)CCO4)C3=O)cc(C)c1Cl [Example 61] the compound record lists GI50 as 8200 nM

For Cc1cc(OCCCc2c3n(c4c(-c5c(C)nn(C)c5C)c(Cl)ccc24)[C@H](C)CN(c2cc(C(=O)O)cc4[nH]ccc24)C3=O)cc(C)c1Cl [Example 100] the compound record lists GI50 as 5800 nM

FYI, the data here is from patent US11596639B2.
